Settings: in methanol, 318.15 K
quantity name: solubility (mole fraction)

{"structure string": "O=C(O)CN(CC(=O)O)CP(=O)(O)O", "recorded result": 0.000168}

----------
Conditions: in n-hexanol, 318.15 K

{"structure string": "O=C(O)CN(CC(=O)O)CP(=O)(O)O", "solubility (mole fraction)": 0.00197}

----------
Settings: in isopropanol, 333.15 K

{"structure string": "O=C(O)CN(CC(=O)O)CP(=O)(O)O", "solubility (mole fraction)": 0.00131}

----------
Conditions: in n-pentanol, 308.15 K

{"structure string": "O=C(O)CN(CC(=O)O)CP(=O)(O)O", "solubility (mole fraction)": 0.00023}
